Tested on: NCI-H460
Assay: NCI-60 five-dose assay (non-small cell lung cancer)
Format: cell-based, human
Details: 48 h, SRB
Assignment: determine reported TGI for the given compounds.
Numbers only, in µM.

Provide TGI for all items below, preserving their order.
1. COc1cc(NC2=C(Cl)C(=O)c3nc(C)ccc3C2=O)cc(OC)c1
2. CCOc1ccccc1NC1=C(Cl)C(=O)c2nc(C)ccc2C1=O
3. CCOc1ccc(NC2=C(Cl)C(=O)c3nc(C)ccc3C2=O)cc1
4. COc1ccccc1NC1=C(Cl)C(=O)c2nc(C)ccc2C1=O

1: 8.07; 2: 11.4; 3: 10.4; 4: 12

###

This section lists GI50 readings for SF-539.

Please review the following examples before continuing.
[
  {
    "COMPOUND": "CCOc1ccc(NC2=C(Cl)C(=O)c3nc(C)ccc3C2=O)cc1 [AQQ3]",
    "READOUT VALUE": "1680 nM"
  },
  {
    "COMPOUND": "CCOc1ccccc1NC1=C(Cl)C(=O)c2nc(C)ccc2C1=O [AQQ2]",
    "READOUT VALUE": "1670 nM"
  },
  {
    "COMPOUND": "COc1cc(NC2=C(Cl)C(=O)c3nc(C)ccc3C2=O)cc(OC)c1 [AQQ5]",
    "READOUT VALUE": "1790 nM"
  }
]

Lab request: please report GI50 under test system SF-539 for COc1ccccc1NC1=C(Cl)C(=O)c2nc(C)ccc2C1=O [AQQ1]
1680 nM
